molecular target: ApoE4 (UniProt P02649 19-317, C130R); assay: SPR
Sequence (P02649 19-317 C130R): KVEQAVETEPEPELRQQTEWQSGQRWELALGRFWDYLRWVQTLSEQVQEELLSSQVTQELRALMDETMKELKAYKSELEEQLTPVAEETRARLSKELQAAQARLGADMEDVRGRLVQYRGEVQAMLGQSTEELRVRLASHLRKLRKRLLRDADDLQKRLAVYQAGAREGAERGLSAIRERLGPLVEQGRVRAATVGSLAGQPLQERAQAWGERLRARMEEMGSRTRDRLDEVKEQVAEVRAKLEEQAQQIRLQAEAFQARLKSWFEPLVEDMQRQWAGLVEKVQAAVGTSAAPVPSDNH
observable: Kd (nM)

- binder: "GGTGGCGGAGG (structured_DNA) [ApoE4-PQS1]"
  unit-spec: "nM"
  assay-result: 60
